- TGT: HLA-A*31:01
- PROCEDURE_DETAILS: IEDB peptide-MHC binding, purified MHC/competitive/radioactivity; filed as Kd, often an IC50 or EC50 that approximates it; bounds were set here for any values at or beyond the usual limits of such assays
- ASSAY_CONDITIONS: source organism: Vaccinia virus WR
pKd: −log10 of the molar value.
Below is a list of entries, each paired with its recorded pKd value.
MEASUREMENT_NAME: pKd

1) PFTQHLLNIR = 6.78
2) RTRLYDYFTR = 9.15
3) EILRNYLRLY = 5.46
4) VMNIERQDYR = 7.33
5) KMAVEVGSIR = 5.78
6) TSKTTILSK = 5.69
7) QSVLCVKKFY = 4.81
8) SILARRPTPK = 6.43
9) LLYAAEMVEY = 6.63
10) LSVETITEK = 5.53
11) GSIKIKQDVR = 6.55
12) RTFNEDLFR = 7.75
13) LILAEYIRHR = 7.09
14) DLTTMPTYK = 6.20
15) SLIKFISDNK = 5.58
16) PIYSHTERDK = 6.01

---

# pKd per entry
- TGT: HLA-B*27:03
- PROCEDURE_DETAILS: IEDB peptide-MHC binding, purified MHC/competitive/fluorescence; filed as Kd, often an IC50 or EC50 that approximates it; bounds were set here for any values at or beyond the usual limits of such assays
- ASSAY_CONDITIONS: source organism: Giardia lamblia ATCC 50803
pKd: −log10 of the molar value.
MEASUREMENT_NAME: pKd

1) NAMGADYYA = ≤ 4.70
2) TEDDWITYI = ≤ 4.70

---

- TGT: HLA-A*11:01
- PROCEDURE_DETAILS: IEDB peptide-MHC binding, purified MHC/direct/fluorescence; filed as Kd, often an IC50 or EC50 that approximates it; bounds were set here for any values at or beyond the usual limits of such assays
- ASSAY_CONDITIONS: source organism: Vibrio cholerae
pKd: −log10 of the molar value.
MEASUREMENT_NAME: pKd

1) KEDPGDHIF = ≤ 4.70
2) IPISGRITA = ≤ 4.70

---

- TGT: HLA-A*03:01
- PROCEDURE_DETAILS: IEDB peptide-MHC binding, purified MHC/competitive/radioactivity; filed as Kd, often an IC50 or EC50 that approximates it; bounds were set here for any values at or beyond the usual limits of such assays
- ASSAY_CONDITIONS: source organism: Hepatitis C virus (isolate 1)
MEASUREMENT_NAME: Kd

1) HPNIEEVAL = ≥ 78 µM

---

- TGT: HLA-B*51:01
- PROCEDURE_DETAILS: IEDB peptide-MHC binding, purified MHC/competitive/fluorescence; filed as Kd, often an IC50 or EC50 that approximates it; bounds were set here for any values at or beyond the usual limits of such assays
- ASSAY_CONDITIONS: source organism: Orthohantavirus puumalaense
MEASUREMENT_NAME: Kd

1. IILKALYML = ≥ 20 µM

---

- TGT: HLA-A*11:01
- PROCEDURE_DETAILS: IEDB peptide-MHC binding, purified MHC/competitive/radioactivity; filed as Kd, often an IC50 or EC50 that approximates it; bounds were set here for any values at or beyond the usual limits of such assays
- ASSAY_CONDITIONS: source organism: Vaccinia virus WR
pKd: −log10 of the molar value.
As shown below, each of these sequences has a reported pKd value.
MEASUREMENT_NAME: pKd

1) SADNHPKMIK = 8.69
2) MTIREFPRK = 8.41
3) RTFNEDLFR = 7.82
4) LLSINSSFY = 6.32
5) FASADNHPK = 6.76
6) RIVTVTTKDY = 6.22
7) LSFSNTIQSY = 5.86
8) SILARRPTPK = 8.84
9) YLKNYKNFDY = 5.60

Data provenance: the Immune Epitope Database (IEDB)
